System: SW948 cells
protocol text: Cell growth suppression test on various cancer cell lines: SW948
Assay type: cell-based
test conditions: Homo sapiens, 72 h; SW948 (colon cancer), cultured 3 days
experimental readout: IC50 (nM)
Value expressed in nM; do not type the unit.

Study these solved cases before continuing.
COc1cccc(OCCCN)c1-c1cc(Nc2cnc(C#N)cn2)n[nH]1 [Prexasertib, reference compound]
38.9
C[C@H](CN)COc1cnc2c(c1-c1cc(Nc3cnc(C#N)cn3)n[nH]1)OCC2
5

Consider the molecule `N#Cc1cnc(Nc2cc(-c3c(OCCCN)cnc4cccnc34)[nH]n2)cn1` and give its measured IC50.
22.3

###

Recorded AUC(0-t) values for a group of molecules are listed next.
protocol text: Pharmacokinetic test, intravenous administration to mice
Type: in vivo
test conditions: female, BALB/c, mouse, plasma, liposome formulations, 1.0 mg/kg i.v., trapezoidal method, 0 hours to last quantifiable time
Value expressed in µg·h/mL; do not type the unit.

N#Cc1cnc(Nc2cc(-c3c(OCCCN)ccc4ccnn34)[nH]n2)cn1
430

Switching to the query record.
Consider the molecule `N#Cc1cnc(Nc2cc(-c3c(OCC4(CN)CC4)cnc4c3OCC4)[nH]n2)cn1` and give its measured AUC(0-t).
397
